Values were extracted from patent US8906904B2.

- assay_info: Assessment of solubility (McIlvaine buffers, 24 h shake, UPLC-UV)
- Assay type: physicochemical
- conditions: pH 2.2, aqueous buffer, kinetic from dmso stock
Threshold rule: solubility at 24 h greater than or equal to 100 µg/mL is 1; below that, -1.

Please review the following examples before continuing.
Exam item: decide whether the reported solubility at 24 h for "CCOc1c(C(=O)O)cnn1-c1cccc(-c2cccc(C)c2OCc2cc(C)c3c(c2)CCN(C2CCOCC2)C3)n1" is at least 100 µg/mL.
1

Identify whether the reported solubility at 24 h of the following molecule is 100 µg/mL or greater: "CCOc1c(C(=O)O)cnn1-c1cccc(-c2cccc(C)c2OCc2ccc3c(c2C)CCN(C2COC2)CC3)n1"
1

More entries:
Does CCOc1c(C(=O)O)cnn1-c1cccc(-c2cccc(Cl)c2OCc2ccc3c(c2)CCN(C(C)CO)C3)n1 (stereo not drawn) have a reported solubility at 24 h of at least 100 µg/mL?
-1

Record "COc1c(C(=O)O)cnn1-c1cccc(-c2cccc(Cl)c2OCc2ccc3c(c2)CCN(C2COC2)C3)n1" ; criterion: solubility at 24 h no lower than 100 µg/mL. Met?
1
